Reported T/C by item:
# Test system: BDF1 mice, M5076 sarcoma s.c., survival/tumor T/C
# assay-notes: NCI In Vivo Anticancer Drug Screen. Data for tumor model Sarcoma M5076 (subcutaneous) in B6D2F1 (BDF1) mice
# run-conditions: endpoint: median survival time; dose: 100.0 mg/kg/injection; schedule: Q01DX009 (ip); vehicle: saline with Tween-80; higher = longer survival
Results filed as inconclusive are left out.

Here is how some molecules turned out for T/C.
[[record]]
molecule = "CCOC(=O)c1ccc(N2C(=O)OC(C)(C)C2=O)cc1"
experimental_system = "BDF1 mice, M5076 sarcoma s.c., survival/tumor T/C"
readout_type = "T/C"
value_observed = "115 % of control"

[[record]]
molecule = "CN1C(=O)CN2CCc3ccccc3C2c2cc(Cl)ccc21 (stereo not given)"
experimental_system = "BDF1 mice, M5076 sarcoma s.c., survival/tumor T/C"
readout_type = "T/C"
value_observed = "102 % of control"

[[record]]
molecule = "COc1ccc(/C=N/NC(=O)C(=O)Nc2ccc(Cl)c([N+](=O)[O-])c2)cc1OC"
experimental_system = "BDF1 mice, M5076 sarcoma s.c., survival/tumor T/C"
readout_type = "T/C"
value_observed = "88 % of control"

[[record]]
molecule = "CCC(C)C(NS(=O)(=O)c1ccc(C)cc1)C(=O)O (stereo not given)"
experimental_system = "BDF1 mice, M5076 sarcoma s.c., survival/tumor T/C"
readout_type = "T/C"
value_observed = "92 % of control"


Given the entry CC(=O)Nc1ccc(OC(=O)Nc2ccc(C)c(NC(=O)Oc3ccc(NC(C)=O)cc3)c2)cc1 , report its measured T/C.
95 % of control

* * *

# System: BDF1 mice, M5076 sarcoma s.c., survival/tumor T/C
# assay-notes: NCI In Vivo Anticancer Drug Screen. Data for tumor model Sarcoma M5076 (subcutaneous) in B6D2F1 (BDF1) mice
# run-conditions: endpoint: median survival time; dose: 100.0 mg/kg/injection; schedule: Q01DX009 (ip); vehicle: saline with Tween-80; higher = longer survival
Results filed as inconclusive are left out.
readout-type: T/C

[[record]]
molecule = "COc1cc(-c2ccc(NC(=O)NC3CC3)c(OC)c2)ccc1NC(=O)NC1CC1"
readout_type = "T/C"
value_observed = "93 % of control"

[[record]]
molecule = "COc1ccc(/C=C2\\SC(=O)N(C)C2=O)cc1OC"
readout_type = "T/C"
value_observed = "100 % of control"

[[record]]
molecule = "COc1cc(/C=C2\\SC(=S)N(c3ccc(Cl)c(Cl)c3)C2=O)ccc1O"
readout_type = "T/C"
value_observed = "94 % of control"

[[record]]
molecule = "CCC(NN)C(=O)OCc1ccccc1 (configuration not stated)"
readout_type = "T/C"
value_observed = "104 % of control"

[[record]]
molecule = "O=C1/C(=C/c2cccc([N+](=O)[O-])c2)SC(=S)N1C1CC1"
readout_type = "T/C"
value_observed = "94 % of control"


Item CC1(C)OC(C)(C)c2c1nnc(-c1cccc([N+](=O)[O-])c1)[n+]2[O-] with BDF1 mice, M5076 sarcoma s.c., survival/tumor T/C - T/C?
113 % of control

Queued: Cc1ccc(SC(F)(F)C(F)C(F)(F)F)cc1 (configuration not stated)
112 % of control

Queued: Cc1ccc(/C=C2\SC(=S)N(C3CC3)C2=O)cc1
94 % of control

Queued: CC1(C)OC(C)(C)c2c1nnc(-c1ccccc1[N+](=O)[O-])[n+]2[O-]
99 % of control

Queued: C[c-]1[c-][c-][c-][c-]1.C[c-]1[c-][c-][c-][c-]1.[C-]#[O+].[C-]#[O+].[C-]#[O+].[C-]#[O+].[C-]#[O+].[C-]#[O+].[Mo].[Mo]
111 % of control

Queued: c1cnc2c(OCCOCCOCCOCCOc3cccc4cccnc34)cccc2c1
122 % of control

Queued: Cc1cc(-c2ccc(NC(=O)Nc3cccc(F)c3)c(C)c2)ccc1NC(=O)Nc1cccc(F)c1
102 % of control

Queued: COC(=O)C(Cc1ccccc1)NS(=O)(=O)c1ccc(C)cc1 (configuration not stated)
106 % of control

Queued: Nc1nc(SCC(=O)O)[nH]c(=O)c1N
105 % of control

Queued: CCCCOc1ccc(-n2c(=O)[nH]c3ccccc3c2=O)cc1
94 % of control

Queued: Nc1ccc(N2N=C(N3CCCC3)CC2=O)cc1
99 % of control

Queued: COc1ccc(/C=N/OC(=S)NC2CCCCC2)cc1OC
86 % of control

Queued: O=C1CC(=O)N(C2CCCCC2)C(=O)N1c1ccccc1S(=O)(=O)Oc1ccccc1
90 % of control

Queued: Cc1cc(C)nc(NS(=O)(=O)c2ccc(NC(=O)C(Cl)(Cl)Cl)cc2)n1
88 % of control

Queued: CC(=O)Nc1ccc(S(=O)(=O)NNC(=O)C(=O)Nc2cccc(Cl)c2)cc1
98 % of control

Queued: CCN1Cc2c(/C=C/c3ccccc3)nc3ccc(OC)cc3c2N(c2cccc(Cl)c2)C1
99 % of control

Queued: OCCNCCN=C1CCC(=NCCNCCO)CC1
100 % of control

* * *

# Tested on: BDF1 mice, M5076 sarcoma s.c., survival/tumor T/C
# assay-notes: NCI In Vivo Anticancer Drug Screen. Data for tumor model Sarcoma M5076 (subcutaneous) in B6D2F1 (BDF1) mice
# run-conditions: endpoint: median survival time; dose: 100.0 mg/kg/injection; schedule: Q01DX009 (ip); vehicle: saline with Tween-80; higher = longer survival
Inconclusive results are not listed.
readout-type: T/C

[[record]]
line_notation = "Cc1cc(-c2ccc(NC(=O)c3cccc([N+](=O)[O-])c3)c(C)c2)ccc1NC(=O)c1cccc([N+](=O)[O-])c1"
value_observed = "102 % of control"

[[record]]
line_notation = "O=C1Nc2cnc(Cl)nc2Nc2ccccc21"
value_observed = "94 % of control"

[[record]]
line_notation = "COc1ccc(Cl)cc1NC(=O)NNC(=O)C(=O)Nc1ccc(F)cc1"
value_observed = "106 % of control"


Given the entry COc1cccc(/C=N/NP(=S)(Oc2ccc(C(C)(C)C)cc2)Oc2ccc(C(C)(C)C)cc2)c1OC , report its measured T/C.
94 % of control

Queued: O=C1/C(=C/c2ccc3c(c2)OCO3)SC(=S)N1c1ccc(Cl)c(Cl)c1
90 % of control

Queued: CC1(C)OC(C)(C)c2c1nnc(-c1ccccc1)[n+]2[O-]
105 % of control

* * *

# Test system: BDF1 mice, M5076 sarcoma s.c., survival/tumor T/C
# assay-notes: NCI In Vivo Anticancer Drug Screen. Data for tumor model Sarcoma M5076 (subcutaneous) in B6D2F1 (BDF1) mice
# run-conditions: endpoint: mean tumor weight; dose: 25.0 mg/kg/injection; schedule: Q02DX011 (ip); vehicle: saline; higher = larger tumour
Records with an inconclusive call do not appear.
readout-type: T/C

[[record]]
line_notation = "C[C@]12C=CC(=O)C=C1CC[C@@H]1[C@@H]2C(=O)C[C@@]2(C)[C@H]1CC[C@]2(O)C(=O)CO"
value_observed = "52 % of control"

[[record]]
line_notation = "NCCc1ccc(O)c(O)c1"
value_observed = "53 % of control"

[[record]]
line_notation = "Cc1c2ccncc2c(C)c2c1[nH]c1ccccc12"
value_observed = "65 % of control"


Continue with the compound presented below.
Given the entry c1cc2n(n1)CCN2 , report its measured T/C.
103 % of control

* * *

# Tested on: BDF1 mice, M5076 sarcoma s.c., survival/tumor T/C
# assay-notes: NCI In Vivo Anticancer Drug Screen. Data for tumor model Sarcoma M5076 (subcutaneous) in B6D2F1 (BDF1) mice
# run-conditions: endpoint: median survival time; dose: 200.0 mg/kg/injection; schedule: Q01DX009 (ip); vehicle: saline with Tween-80; higher = longer survival
Results filed as inconclusive are left out.
readout-type: T/C

Here is how some compounds turned out for T/C.
[[record]]
compound = "CC1(C)OC(C)(C)c2c1nnc(-c1ccccc1)[n+]2[O-]"
value_observed = "103 % of control"

[[record]]
compound = "Cc1cc(-c2ccc(NC(=O)c3cccc([N+](=O)[O-])c3)c(C)c2)ccc1NC(=O)c1cccc([N+](=O)[O-])c1"
value_observed = "102 % of control"

[[record]]
compound = "CSc1ccc(NC(=O)NNP(=S)(Oc2ccc(C(C)(C)C)cc2)Oc2ccc(C(C)(C)C)cc2)cc1"
value_observed = "87 % of control"


Continue with the compound presented below.
Item CN1C(=O)CN2CCc3ccccc3C2c2cc(Cl)ccc21 (stereo not given) with BDF1 mice, M5076 sarcoma s.c., survival/tumor T/C - T/C?
105 % of control

* * *

# System: BDF1 mice, M5076 sarcoma s.c., survival/tumor T/C
# assay-notes: NCI In Vivo Anticancer Drug Screen. Data for tumor model Sarcoma M5076 (subcutaneous) in B6D2F1 (BDF1) mice
# run-conditions: endpoint: median survival time; dose: 100.0 mg/kg/injection; schedule: Q01DX009 (ip); vehicle: saline with Tween-80; higher = longer survival
Results filed as inconclusive are left out.
readout-type: T/C

Here is how some compounds turned out for T/C.
[[record]]
line_notation = "CCOc1cc(/C=N/NC(=O)N(c2ccccc2)c2ccccc2)ccc1O"
readout_type = "T/C"
value_observed = "99 % of control"

[[record]]
line_notation = "COc1cc(COC(=O)Nc2ccccc2F)cc(OC)c1OC"
readout_type = "T/C"
value_observed = "103 % of control"


Continue with the compound presented below.
Given the entry COc1cc(/C=N/NC(=O)COCC(=O)N/N=C/c2ccc(O)cc2OC)ccc1O , report its measured T/C.
86 % of control

This collection of values is drawn from PubChem BioAssay AID288.
